- test-system: PAF specific receptor binding site on human platelet membranes (Homo sapiens, UniProt P25105)
- Construct: 100 μg of the platelet plasma membrane suspension; from tissue; host or cells: human platelets (plasma membranes)
- Sequence (P25105 whole entry): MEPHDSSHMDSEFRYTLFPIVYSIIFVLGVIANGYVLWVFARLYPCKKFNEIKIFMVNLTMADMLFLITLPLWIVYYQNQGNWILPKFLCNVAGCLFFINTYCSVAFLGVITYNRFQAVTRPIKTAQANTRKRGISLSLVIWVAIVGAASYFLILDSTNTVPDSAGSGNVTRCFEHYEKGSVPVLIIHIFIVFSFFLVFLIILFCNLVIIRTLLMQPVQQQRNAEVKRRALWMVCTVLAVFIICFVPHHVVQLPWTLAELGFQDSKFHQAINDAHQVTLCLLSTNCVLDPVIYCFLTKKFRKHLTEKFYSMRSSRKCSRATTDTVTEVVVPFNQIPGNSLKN
- procedure-summary: inhibition of the binding of [3H] N-methylcarbamoyl-PAF to human platelet membranes
- test-context: trans configuration, read-out: % inhibitor* (% inhibition of the binding of [3H] N-methylcarbamoyl-PAF to human platelet membranes)
- Method: The ability of a compound of formula (I) to inhibit the PAF binding to its specific receptor binding site on rabbit or human platelet or PMN plasma membranes was measured by a recently developed assay. The inhibition of ^3 [H] PAF or ^3 [H]N-methylcarbamoyl-PAF binding to the human or rabbit platelet or PMN plasma membrane by a PAF antagonist of formula (I) was determined by a method employing isotopic labeling and filtration techniques. […]
Documented inhibition across a set of compounds
Numeric answer only, unit % assumed.

1) CCCNCCS(=O)(=O)c1cc([C@@H]2CC[C@@H](c3cc(OC)c(OC)c(OC)c3)O2)cc(OCCC)c1OCCC (relative stereo) :: 33
2) CCCOc1c(OCC(C)=O)cc([C@H]2CC[C@H](c3cc(OC)c(OC)c(OC)c3)O2)cc1S(=O)(=O)CCO (relative stereo) [SO2 CH2 CH2OH / CH2 CH2 CH3 / CH2 COCH3] :: 33
3) CCCOc1c(OCC(C)O)cc([C@@H]2CC[C@@H](c3cc(OC)c(OC)c(OC)c3)O2)cc1S(=O)(=O)CCN(C)C (relative stereo) :: 14

Lab note: next compound to report on.
Report inhibition, nothing else, for this compound: CCCOc1c(OCCCO)cc([C@@H]2CC[C@@H](c3cc(OC)c(OC)c(OC)c3)O2)cc1S(=O)(=O)CC(C)NCC (relative stereo) 36
